Biological target: glutathione-S-transferase (GST) tagged LXRalpha LBD (ligand binding domain) (Homo sapiens)
Construct: purchased Invitrogen pv4655
Sequence (Q13133 209-447 limits assumed): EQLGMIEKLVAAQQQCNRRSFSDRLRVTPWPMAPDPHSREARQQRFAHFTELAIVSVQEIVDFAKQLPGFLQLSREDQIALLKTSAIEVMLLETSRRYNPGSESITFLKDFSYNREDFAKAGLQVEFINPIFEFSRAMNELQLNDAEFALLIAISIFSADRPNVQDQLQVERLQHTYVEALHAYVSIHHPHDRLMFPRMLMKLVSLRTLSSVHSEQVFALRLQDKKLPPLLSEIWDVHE
Assay: LanthaScreen TR-FRET Liver X Receptor Coactivator Assay, LXR alpha
Type: biochemical
Details: efficacy (Emax) in relation to reference dual agonist T0901317; read-out: LXR alpha actiivty at max dose (%)

{"Compound": "CN(C)C(=O)c1ccc(N(C)CCC2CC23CCN(C(=O)C(C)(C)c2ccccc2)CC3)cc1Cl (single isomer, unassigned) [Example 9-1]", "System Under Test": "glutathione-S-transferase (GST) tagged LXRalpha LBD (ligand binding domain) (Homo sapiens)", "Emax [%]": 22}
{"Compound": "O=C(c1ccc(NCCC[C@@H]2CC23CCN(C(=O)[C@](O)(c2ccccc2)C(F)(F)F)CC3)cc1Cl)N1CCCC1 (single isomer, unassigned) [Example 6-4]", "System Under Test": "glutathione-S-transferase (GST) tagged LXRalpha LBD (ligand binding domain) (Homo sapiens)", "Emax [%]": 6}
{"Compound": "CNC(=O)c1ccc(CCCCCC2CCN(C(=O)C(O)(c3ccccc3)C(F)(F)F)CC2)cc1Cl (single isomer, unassigned) [Example 15-7]", "System Under Test": "glutathione-S-transferase (GST) tagged LXRalpha LBD (ligand binding domain) (Homo sapiens)", "Emax [%]": 40}
{"Compound": "COc1cccc([C@@](O)(C(=O)N2CCC(CCC[C@H](C)Nc3ccc(C(=O)N(C)C)c(Cl)c3)CC2)C(F)(F)F)c1 (single isomer, unassigned) [Example 4-1]", "System Under Test": "glutathione-S-transferase (GST) tagged LXRalpha LBD (ligand binding domain) (Homo sapiens)", "Emax [%]": 22}
{"Compound": "CNC(=O)c1ccc(NCCCCC2CCN(C(=O)C(O)(c3cccc(OC)c3)C(F)(F)F)CC2)cc1F (single isomer, unassigned) [Example 1-6]", "System Under Test": "glutathione-S-transferase (GST) tagged LXRalpha LBD (ligand binding domain) (Homo sapiens)", "Emax [%]": 16}
{"Compound": "CNC(=O)c1ccc(NCCC[C@@H]2CC23CCN(C(=O)[C@@](O)(C(C)C)C(F)(F)F)CC3)cc1Cl (single isomer, unassigned) [Example 6-8]", "System Under Test": "glutathione-S-transferase (GST) tagged LXRalpha LBD (ligand binding domain) (Homo sapiens)", "Emax [%]": 65}
{"Compound": "CN(C)C(=O)c1ccc(CCCCC2CCN(C(=O)C(O)(c3ccccc3)C(F)(F)F)CC2)cc1Cl (single isomer, unassigned) [Example 15-2]", "System Under Test": "glutathione-S-transferase (GST) tagged LXRalpha LBD (ligand binding domain) (Homo sapiens)", "Emax [%]": 20}
{"Compound": "CN(C)C(=O)c1ccc(NCCC2CC23CCN(C(=O)C2(c4ccccc4)CCCC2)CC3)cc1Cl (single isomer, unassigned) [Example 8-1]", "System Under Test": "glutathione-S-transferase (GST) tagged LXRalpha LBD (ligand binding domain) (Homo sapiens)", "Emax [%]": 0}
{"Compound": "CNC(=O)c1ccc(NCCCCC2CCN(C(=O)C(O)(c3ccccc3)C(F)(F)F)CC2)cc1Cl (single isomer, unassigned) [Example 1-3]", "System Under Test": "glutathione-S-transferase (GST) tagged LXRalpha LBD (ligand binding domain) (Homo sapiens)", "Emax [%]": 38}
{"Compound": "CN(C)C(=O)c1ccc(CCCC2CC3(CCN(C(=O)C(C)(C)c4ccccc4)CC3)C2)cc1Cl [Example 16-3]", "System Under Test": "glutathione-S-transferase (GST) tagged LXRalpha LBD (ligand binding domain) (Homo sapiens)", "Emax [%]": 50}
{"Compound": "CN(C)C(=O)c1ccc(CCC[C@H]2CC23CCN(C(=O)[C@](O)(c2ccccc2)C(F)(F)F)CC3)cc1Cl (single isomer, unassigned) [Example 17-2]", "System Under Test": "glutathione-S-transferase (GST) tagged LXRalpha LBD (ligand binding domain) (Homo sapiens)", "Emax [%]": 35}
{"Compound": "CNC(=O)c1ccc(NCCC[C@@H]2CC23CCN(C(=O)[C@](O)(C(C)C)C(F)(F)F)CC3)cc1Cl (single isomer, unassigned) [Example 6-9]", "System Under Test": "glutathione-S-transferase (GST) tagged LXRalpha LBD (ligand binding domain) (Homo sapiens)", "Emax [%]": 64}
{"Compound": "CN(C)C(=O)c1ccc(NCCCC2CCN(S(=O)(=O)c3c(Cl)cccc3Cl)CC2)cc1Cl [Example 1-12]", "System Under Test": "glutathione-S-transferase (GST) tagged LXRalpha LBD (ligand binding domain) (Homo sapiens)", "Emax [%]": 46}
{"Compound": "CNC(=O)c1ccc(NCCCCC2CCN(C(=O)C(O)(c3cccc(OC4CC4)c3)C(F)(F)F)CC2)cc1Cl (single isomer, unassigned) [Example 1-7]", "System Under Test": "glutathione-S-transferase (GST) tagged LXRalpha LBD (ligand binding domain) (Homo sapiens)", "Emax [%]": 19}
{"Compound": "CN(C(=O)c1ccc(NCCC[C@@H]2CC23CCN(C(=O)[C@](O)(c2ccccc2)C(F)(F)F)CC3)cc1Cl)C1CC1 (single isomer, unassigned) [Example 6-6]", "System Under Test": "glutathione-S-transferase (GST) tagged LXRalpha LBD (ligand binding domain) (Homo sapiens)", "Emax [%]": 0}
{"Compound": "CN(Cc1ccc(C(=O)N(C)C)c(Cl)c1)CC1CC12CCN(C(=O)C(C)(C)c1ccccc1)CC2 (centres unmarked) [Example 14-1]", "System Under Test": "glutathione-S-transferase (GST) tagged LXRalpha LBD (ligand binding domain) (Homo sapiens)", "Emax [%]": 33}
{"Compound": "COc1cccc([C@@](O)(C(=O)N2CCC([C@H]3C[C@H]3CSc3ccc(C(=O)N(C)C)c(Cl)c3)CC2)C(F)(F)F)c1 (single isomer, unassigned) [Example 23-1]", "System Under Test": "glutathione-S-transferase (GST) tagged LXRalpha LBD (ligand binding domain) (Homo sapiens)", "Emax [%]": 24}
{"Compound": "CN(C)C(=O)c1c(F)cc(NCCC[C@H]2CC23CCN(C(=O)[C@](O)(c2ccccc2)C(F)(F)F)CC3)cc1F (single isomer, unassigned) [Example 6-5]", "System Under Test": "glutathione-S-transferase (GST) tagged LXRalpha LBD (ligand binding domain) (Homo sapiens)", "Emax [%]": 19}
{"Compound": "COc1cccc([C@@](O)(C(=O)N2CCC3(CC2)C[C@H]3CCCc2ccc(C(=O)N(C)C)c(Cl)c2)C(F)(F)F)c1 (single isomer, unassigned) [Example 17-1]", "System Under Test": "glutathione-S-transferase (GST) tagged LXRalpha LBD (ligand binding domain) (Homo sapiens)", "Emax [%]": 0}
{"Compound": "CN(C)C(=O)c1ccc(NC[C@H]2C[C@@H]2C2CCN(C(=O)[C@](O)(c3ccccc3)C(F)(F)F)CC2)cc1Cl (single isomer, unassigned) [Example 8-2]", "System Under Test": "glutathione-S-transferase (GST) tagged LXRalpha LBD (ligand binding domain) (Homo sapiens)", "Emax [%]": 34}
{"Compound": "COc1cccc(C(O)(C(=O)N2CCC3(CCC(Cc4ccc(C(=O)N(C)C)c(Cl)c4)CC3)CC2)C(F)(F)F)c1 (single isomer, unassigned) [Example 18-1]", "System Under Test": "glutathione-S-transferase (GST) tagged LXRalpha LBD (ligand binding domain) (Homo sapiens)", "Emax [%]": 21}
{"Compound": "NC(=O)c1ccc(NCCCCC2CCN(C(=O)C(O)(c3ccccc3)C(F)(F)F)CC2)cc1Cl (single isomer, unassigned) [Example 1-2]", "System Under Test": "glutathione-S-transferase (GST) tagged LXRalpha LBD (ligand binding domain) (Homo sapiens)", "Emax [%]": 43}
{"Compound": "CN(C)C(=O)c1ccc(NCCC[C@@H]2CC23CCN(C(=O)[C@](O)(c2ccccc2)C(F)(F)F)CC3)cc1Cl (single isomer, unassigned) [Example 6-1]", "System Under Test": "glutathione-S-transferase (GST) tagged LXRalpha LBD (ligand binding domain) (Homo sapiens)", "Emax [%]": 21}
